Catalogue of compounds with associated efflux ratio at 1 μM
target: P-glycoprotein (P-gp, rat Mdr1a) (Rattus norvegicus); assay: P-gp transport, experimental BA/AB ratio, rat LLC-Mdr1a; assay type: in vitro ADME; settings: LLC-PK1; rat LLC-Mdrla; 1 μM substrate concentration
Sequence (Q6PSM0 1-1272): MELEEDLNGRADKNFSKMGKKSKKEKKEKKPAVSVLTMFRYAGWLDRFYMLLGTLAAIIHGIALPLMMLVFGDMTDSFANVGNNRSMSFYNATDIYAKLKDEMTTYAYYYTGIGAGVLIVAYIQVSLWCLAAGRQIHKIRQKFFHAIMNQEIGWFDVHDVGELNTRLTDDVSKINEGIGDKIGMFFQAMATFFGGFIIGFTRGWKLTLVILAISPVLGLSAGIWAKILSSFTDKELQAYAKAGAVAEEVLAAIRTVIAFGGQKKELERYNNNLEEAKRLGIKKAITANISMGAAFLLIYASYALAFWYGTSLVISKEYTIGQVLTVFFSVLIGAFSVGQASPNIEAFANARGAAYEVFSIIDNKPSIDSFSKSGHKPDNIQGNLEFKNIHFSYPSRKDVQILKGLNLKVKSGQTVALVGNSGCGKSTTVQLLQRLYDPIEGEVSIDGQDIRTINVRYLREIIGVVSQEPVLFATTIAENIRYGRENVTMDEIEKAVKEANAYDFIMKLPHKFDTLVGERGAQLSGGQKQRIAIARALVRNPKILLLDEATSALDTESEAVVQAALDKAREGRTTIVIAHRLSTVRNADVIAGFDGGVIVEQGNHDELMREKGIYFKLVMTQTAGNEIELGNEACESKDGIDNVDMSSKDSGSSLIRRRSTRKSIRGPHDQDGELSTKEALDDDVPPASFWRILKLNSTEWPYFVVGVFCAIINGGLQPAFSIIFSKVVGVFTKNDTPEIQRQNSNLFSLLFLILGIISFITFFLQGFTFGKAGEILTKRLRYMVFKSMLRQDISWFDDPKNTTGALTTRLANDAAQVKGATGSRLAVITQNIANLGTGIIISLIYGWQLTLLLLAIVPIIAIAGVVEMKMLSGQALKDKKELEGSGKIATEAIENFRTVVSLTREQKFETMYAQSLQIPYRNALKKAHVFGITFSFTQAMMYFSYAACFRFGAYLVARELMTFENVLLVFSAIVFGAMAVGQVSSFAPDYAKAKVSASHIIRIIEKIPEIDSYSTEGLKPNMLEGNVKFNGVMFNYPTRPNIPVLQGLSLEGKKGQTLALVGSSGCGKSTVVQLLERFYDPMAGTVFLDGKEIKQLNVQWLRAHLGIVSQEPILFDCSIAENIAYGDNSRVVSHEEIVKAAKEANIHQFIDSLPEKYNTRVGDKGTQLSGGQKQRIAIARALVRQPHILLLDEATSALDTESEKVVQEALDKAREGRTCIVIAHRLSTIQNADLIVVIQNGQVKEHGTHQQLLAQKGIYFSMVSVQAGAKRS
Give a plain numeric answer without units written out.

Answered cases to consult:
- compound: "C[C@@H](NC(=O)c1cc(=O)[nH]c(N2Cc3cncnc3C2)n1)c1ccc(C(F)(F)F)cc1"
  assay.target: "P-glycoprotein (P-gp, rat Mdr1a) (Rattus norvegicus)"
  efflux ratio at 1 μM: 23.7
- compound: "CC(C)[C@@H](NC(=O)c1cc(=O)[nH]c(N2CCCC2)n1)c1ccc(C(F)(F)F)cc1"
  assay.target: "P-glycoprotein (P-gp, rat Mdr1a) (Rattus norvegicus)"
  efflux ratio at 1 μM: 4.5
- compound: "C[C@@H](NC(=O)c1cc(=O)[nH]c(N2CC[C@H](F)C2)n1)c1ccc(C(F)(F)F)cc1"
  assay.target: "P-glycoprotein (P-gp, rat Mdr1a) (Rattus norvegicus)"
  efflux ratio at 1 μM: 9

Dear colleague, I am looking for the recorded efflux ratio at 1 μM of the following compound: `CC(C)[C@@H](NC(=O)c1cc(=O)[nH]c(N(C)C)n1)c1ccc(C(F)(F)F)cc1`
2.1

Cool, now `CN(C)c1nc(C(=O)N[C@@H](c2ccc(SC(F)(F)F)cc2)C2CC2)cc(=O)[nH]1`
2

Cool, now CC(C)C(C)(NC(=O)c1cc(=O)[nH]c(N(C)C)n1)c1ccc(S(F)(F)(F)(F)F)cc1 (single isomer, unassigned)
3.6

Cool, now `C[C@@H](NC(=O)c1cc(=O)[nH]c(N(C)C)n1)c1ccc(C(F)(F)F)cc1`
1.8
